# Tested on: NCI/ADR-RES
# Protocol description: NCI tumour cell line growth inhibition, 48 h
The source made the active and inactive calls. Rule as the data show it: active = GI50 up to about 1.1 µM and inactive = higher.

{"columns": ["Compound", "Measurement target", "GI50"],
 "data": [
  ["CC1=CCC([C@@](C)(O)CCCC(C)(C)N=C=S)CC1 (some centres undefined)", "NCI/ADR-RES", "19.6 µM (inactive)"],
  ["COc1cc2c(cc1OCCCCOc1cc3nc(C)nc(Cl)c3cc1OC)N=C[C@@H]1CCCN1C2=O", "NCI/ADR-RES", "2.27 µM (inactive)"],
  ["CC[C@H]1C=CCC[C@@]2(C[C@@H]3CC[C@H]4[C@@H](C(=O)OCCCCCCCCCCCCCCCC(=O)N(CCCNC(C)=O)C[C@H](CCNC(C)=O)OC(C)=O)[C@@]5(CCC[C@@H](C)O5)NC(=[N+]34)N2)O1", "NCI/ADR-RES", "> 10 µM (inactive)"],
  ["Cn1c(-c2ccccc2)c2cc3nc4ccccc4nc3cc2c1-c1ccccc1", "NCI/ADR-RES", "23.2 µM (inactive)"],
  ["O=C1C(Br)=Cc2c(Cl)sc(Cl)c21", "NCI/ADR-RES", "8.65 µM (inactive)"],
  ["O=c1[nH]c2ccc([N+](=O)[O-])c(Cl)c2c2ccccc12", "NCI/ADR-RES", "4.98 µM (inactive)"],
  ["Cc1cc2c(cc1C)[n+]([O-])c(NCCCN(C)C)c(C#N)[n+]2[O-]", "NCI/ADR-RES", "85.1 µM (inactive)"],
  ["O=C(c1ccccc1)C1N=NCC1c1ccc([N+](=O)[O-])cc1 (centres undefined)", "NCI/ADR-RES", "39.3 µM (inactive)"],
  ["CCN(CC)CCNC(=O)c1ccc(I)cc1", "NCI/ADR-RES", "> 100 µM (inactive)"]
]}

* * *

This section presents compounds with their documented GI50 values.
# Test system: SNB-19
# Protocol description: NCI tumour cell line growth inhibition, 48 h
Activity calls are given as the source filed them. Rule as the data show it: active = GI50 up to about 1.1 µM and inactive = higher.

{"columns": ["Compound", "Measurement target", "GI50"],
 "data": [
  ["CC1CCc2sc3nc4n(c(=O)c3c2C1)CC(C)S4 (stereo unspecified)", "SNB-19", "27.7 µM (inactive)"],
  ["CCN(CC)c1ccc2cc(C(=O)Nc3cccc4ccccc34)c(=N)oc2c1", "SNB-19", "52.8 µM (inactive)"],
  ["CC(C)NC(=O)OCCN=C1c2ccccc2CCc2ccccc21", "SNB-19", "20.9 µM (inactive)"],
  ["Cc1cccc(NC(=S)Nc2ccc([N+](=O)[O-])cc2)n1", "SNB-19", "> 100 µM (inactive)"],
  ["NC(=O)c1cc2ccc(O)cc2o/c1=N/c1ccccc1", "SNB-19", "36 µM (inactive)"],
  ["O=c1/c(=C/c2cccc([N+](=O)[O-])c2)sc2nc3ccccc3n12", "SNB-19", "> 10 µM (inactive)"]
]}

* * *

# System: DLD-1
# Protocol description: NCI tumour cell line growth inhibition, 48 h
The source made the active and inactive calls. Rule as the data show it: active = GI50 up to about 1.1 µM and inactive = higher.

{"columns": ["Compound", "GI50"],
 "data": [
  ["C/C(=N\\N)C(CN1CCOCC1)C(c1ccccc1)c1c(O)c2ccccc2oc1=O (stereo not given)", "> 100 µM (inactive)"],
  ["S=P1(Sc2ccccc2)Oc2ccc3ccccc3c2-c2c(ccc3ccccc23)O1", "> 100 µM (inactive)"],
  ["COc1ccc(-c2cc(O)c3ccc(F)cc3n2)cc1", "> 100 µM (inactive)"],
  ["C/C(=N\\NS(=O)(=O)c1c(C)cc(C)cc1C)c1ccc[n+]([O-])n1", "7.16 µM (inactive)"],
  ["C1=Cc2nc1c(-c1ccccc1)c1ccc([n-]1)c(-c1ccccc1)c1nc(c(-c3ccccc3)c3ccc([n-]3)c2-c2ccccc2)C=C1.[Zn+2]", "70.1 µM (inactive)"]
]}
